Values compiled from patent US11980596B2.

Assay: Clinical pharmacokinetics of esketamine (label)
Settings: human, plasma, inhaled or intranasal
measured.quantity: bioavailability

Specify reported bioavailability for the compound shown: CN[C@]1(c2ccccc2Cl)CCCCC1=O
~48%

* * *

Assay: Fertility study in male and female rats
Assay type: in vivo, rat
Conditions: both sexes, rat, in vivo, inhaled or intranasal; read-out: NOAEL for mating and fertility
measured.quantity: NOAEL (mg/kg/day)
State just the number; it will be interpreted in mg/kg/day.

Specify reported NOAEL for the compound shown: CN[C@]1(c2ccccc2Cl)CCCCC1=O
45

* * *

Assay: Embryo-fetal toxicity, intranasal racemic ketamine, pregnant rats
Assay type: in vivo, rat
Settings: female, rat, in vivo, inhaled or intranasal; intranasal; period of organogenesis
measured.quantity: NOAEL
Just the number plus its unit, please.

Specify reported NOAEL for the compound shown: CNC1(c2ccccc2Cl)CCCCC1=O (racemic)
150 mg/kg/day
